- targetUnderTest: Melanocortin receptor 4 (Homo sapiens, UniProt P32245)
- Sequence (P32245 whole entry): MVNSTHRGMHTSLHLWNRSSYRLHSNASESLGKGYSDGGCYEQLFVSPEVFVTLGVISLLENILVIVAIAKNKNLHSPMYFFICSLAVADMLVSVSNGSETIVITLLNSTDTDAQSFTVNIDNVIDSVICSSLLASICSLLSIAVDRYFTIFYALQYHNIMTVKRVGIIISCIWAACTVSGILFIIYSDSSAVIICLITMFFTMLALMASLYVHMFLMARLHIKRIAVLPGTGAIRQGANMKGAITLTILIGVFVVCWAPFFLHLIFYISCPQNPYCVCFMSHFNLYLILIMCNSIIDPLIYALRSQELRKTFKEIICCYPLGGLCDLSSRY
- measurementNotes: Agonist activity at human MC4R stably expressed in human Flp-In-293 cells assessed as cAMP accumulation incubated for 45 mins in presence of IBMX by Lance Ultra cAMP assay
- Type: functional, cell-based
- assayContext: read-out: pEC50 (converted)
readoutName: EC50 (nM)

Look over these answered cases.
C[C@H]1NC(=O)c2cc([N+](=O)[O-])ccc2SC[C@@H](C(N)=O)NC(=O)[C@H](Cc2c[nH]c3ccccc23)NC(=O)[C@H](CCCNC(=N)N)NC(=O)[C@@H](Cc2ccccc2)NC(=O)[C@H](Cc2c[nH]cn2)NC1=O ... 1
NC(=O)[C@@H]1CSc2ccc([N+](=O)[O-])cc2C(=O)N[C@@H](Cc2cnc[nH]2)C(=O)N[C@H](Cc2ccccc2)C(=O)N[C@@H](CCCN=C(N)N)C(=O)N[C@@H](Cc2c[nH]c3ccccc23)C(=O)N1 ... 501

I. N=C(N)NCCC[C@@H]1NC(=O)[C@@H](Cc2ccccc2)NC(=O)[C@H](Cc2c[nH]cn2)NC(=O)c2cc(N)ccc2SC[C@@H](C(N)=O)NC(=O)[C@H](Cc2c[nH]c3ccccc23)NC1=O
II. C#Cc1ccc2c(c1)C(=O)N[C@@H](Cc1c[nH]cn1)C(=O)N[C@H](Cc1ccccc1)C(=O)N[C@@H](CCCNC(=N)N)C(=O)N[C@@H](Cc1c[nH]c3ccccc13)C(=O)N[C@H](C(N)=O)CS2
Of the pair I and II , name the member with the lesser recorded EC50. State the label of the item chosen.
II
(II: 89.1 nM, I: 316 nM)

###

- targetUnderTest: Melanocortin receptor 5 (Homo sapiens, UniProt P33032)
- Sequence (P33032 whole entry): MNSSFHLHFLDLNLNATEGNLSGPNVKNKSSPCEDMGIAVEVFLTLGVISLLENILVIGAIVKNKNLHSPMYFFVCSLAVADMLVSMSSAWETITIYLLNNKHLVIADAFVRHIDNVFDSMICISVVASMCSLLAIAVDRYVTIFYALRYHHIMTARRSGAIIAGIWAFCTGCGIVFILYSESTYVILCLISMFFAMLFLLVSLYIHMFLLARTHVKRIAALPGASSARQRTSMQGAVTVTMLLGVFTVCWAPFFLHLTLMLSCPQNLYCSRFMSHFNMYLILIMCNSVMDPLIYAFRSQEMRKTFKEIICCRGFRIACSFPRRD
- measurementNotes: Agonist activity at human MC5R stably expressed in human Flp-In-293 cells assessed as cAMP accumulation at 1 uM incubated for 45 mins in presence of IBMX by Lance Ultra cAMP assay
- Format: functional, cell-based
readoutName: Activity (%)

Some molecules with known Activity results, for comparison:
C[C@@H]1NC(=O)[C@H](Cc2c[nH]c3ccccc23)NC(=O)[C@H](CCCNC(=N)N)NC(=O)[C@@H](Cc2ccccc2)NC(=O)[C@H](Cc2c[nH]cn2)NC(=O)c2cc([N+](=O)[O-])ccc2SC[C@@H](C(N)=O)NC1=O ... 5
C[C@H]1NC(=O)c2cc(N)ccc2SC[C@@H](C(N)=O)NC(=O)[C@H](Cc2c[nH]c3ccccc23)NC(=O)[C@H](CCCNC(=N)N)NC(=O)[C@@H](Cc2ccccc2)NC(=O)[C@H](Cc2c[nH]cn2)NC1=O ... 17
C[C@H]1NC(=O)c2cc([N+](=O)[O-])ccc2SC[C@@H](C(N)=O)NC(=O)[C@H](Cc2c[nH]c3ccccc23)NC(=O)[C@H](CCCNC(=N)N)NC(=O)[C@@H](Cc2ccccc2)NC(=O)[C@H](Cc2c[nH]cn2)NC1=O ... 15
C[C@@H]1NC(=O)c2cc([N+](=O)[O-])ccc2SC[C@@H](C(N)=O)NC(=O)[C@H](Cc2c[nH]c3ccccc23)NC(=O)[C@H](CCCNC(=N)N)NC(=O)[C@@H](Cc2ccccc2)NC(=O)[C@H](Cc2c[nH]cn2)NC1=O ... 11

A. C[C@H]1NC(=O)[C@H](Cc2c[nH]c3ccccc23)NC(=O)[C@H](CCCNC(=N)N)NC(=O)[C@@H](Cc2ccccc2)NC(=O)[C@H](Cc2c[nH]cn2)NC(=O)c2cc([N+](=O)[O-])ccc2SC[C@@H](C(N)=O)NC1=O
B. C#Cc1ccc2c(c1)C(=O)N[C@@H](Cc1c[nH]cn1)C(=O)N[C@H](Cc1ccccc1)C(=O)N[C@@H](CCCNC(=N)N)C(=O)N[C@@H](Cc1c[nH]c3ccccc13)C(=O)N[C@H](C(N)=O)CS2
C. N#Cc1ccc2c(c1)C(=O)N[C@@H](Cc1c[nH]cn1)C(=O)N[C@H](Cc1ccccc1)C(=O)N[C@@H](CCCNC(=N)N)C(=O)N[C@@H](Cc1c[nH]c3ccccc13)C(=O)N[C@H](C(N)=O)CS2
D. N=C(N)NCCC[C@@H]1NC(=O)[C@@H](Cc2ccccc2)NC(=O)[C@H](Cc2cnc[nH]2)NC(=O)c2cc([N+](=O)[O-])ccc2SC[C@@H](C(N)=O)NC(=O)[C@H](Cc2c[nH]c3ccccc23)NC1=O
E. C[C@H]1NC(=O)c2cc(C#N)ccc2SC[C@@H](C(N)=O)NC(=O)[C@H](Cc2c[nH]c3ccccc23)NC(=O)[C@H](CCCNC(=N)N)NC(=O)[C@@H](Cc2ccccc2)NC(=O)[C@H](Cc2c[nH]cn2)NC1=O
Sort (5 molecules) by Activity: min first. Respond with an ordered listing of the labels, as requested.
C, A, D, B, E
(C: 0%, A: 1%, D: 3%, B: 14%, E: 34%)

###

- targetUnderTest: Melanocortin receptor 4 (Homo sapiens)
- measurementNotes: Agonist activity at human MC4R stably expressed in human Flp-In-293 cells assessed as cAMP accumulation incubated for 45 mins in presence of IBMX by Lance Ultra cAMP assay
- Assay type: functional, cell-based
- assayContext: read-out: pEC50 (converted)
readoutName: EC50 (nM)

a. C[C@H]1NC(=O)c2cc(C(=N)N)ccc2SC[C@@H](C(N)=O)NC(=O)[C@H](Cc2c[nH]c3ccccc23)NC(=O)[C@H](CCCNC(=N)N)NC(=O)[C@@H](Cc2ccccc2)NC(=O)[C@H](Cc2c[nH]cn2)NC1=O
b. N#Cc1ccc2c(c1)C(=O)N[C@@H](Cc1c[nH]cn1)C(=O)N[C@H](Cc1ccccc1)C(=O)N[C@@H](CCCNC(=N)N)C(=O)N[C@@H](Cc1c[nH]c3ccccc13)C(=O)N[C@H](C(N)=O)CS2
c. C[C@@H]1NC(=O)c2cc([N+](=O)[O-])ccc2SC[C@@H](C(N)=O)NC(=O)[C@H](Cc2c[nH]c3ccccc23)NC(=O)[C@H](CCCNC(=N)N)NC(=O)[C@@H](Cc2ccccc2)NC(=O)[C@H](Cc2c[nH]cn2)NC1=O
d. C[C@@H]1NC(=O)c2cc(-c3cn([C@@H]4O[C@H](CO)[C@@H](O)[C@H](O)[C@H]4O)nn3)ccc2SC[C@@H](C(N)=O)NC(=O)[C@H](Cc2c[nH]c3ccccc23)NC(=O)[C@H](CCCNC(=N)N)NC(=O)[C@@H](Cc2ccccc2)NC(=O)[C@H](Cc2c[nH]cn2)NC1=O
Ascending by EC50, please: list the compounds accordingly. To answer, arrange all of the labels according to the requested order.
d, a, c, b
(d: 0.135 nM, a: 0.275 nM, c: 20 nM, b: 63.1 nM)

A. C[C@@H]1NC(=O)[C@H](Cc2c[nH]c3ccccc23)NC(=O)[C@H](CCCNC(=N)N)NC(=O)[C@@H](Cc2ccccc2)NC(=O)[C@H](Cc2c[nH]cn2)NC(=O)c2cc([N+](=O)[O-])ccc2SC[C@@H](C(N)=O)NC1=O
B. C[C@H]1NC(=O)c2cc(C#N)ccc2SC[C@@H](C(N)=O)NC(=O)[C@H](Cc2c[nH]c3ccccc23)NC(=O)[C@H](CCCNC(=N)N)NC(=O)[C@@H](Cc2ccccc2)NC(=O)[C@H](Cc2c[nH]cn2)NC1=O
C. C[C@H]1NC(=O)c2cc(N)ccc2SC[C@@H](C(N)=O)NC(=O)[C@H](Cc2c[nH]c3ccccc23)NC(=O)[C@H](CCCNC(=N)N)NC(=O)[C@@H](Cc2ccccc2)NC(=O)[C@H](Cc2c[nH]cn2)NC1=O
Ascending sort, EC50. Please reply with the labels ordered as requested. Many thanks.
B, C, A
(B: 0.501 nM, C: 1.58 nM, A: 6.31 nM)

a. C[C@H]1NC(=O)[C@H](Cc2c[nH]c3ccccc23)NC(=O)[C@H](CCCNC(=N)N)NC(=O)[C@@H](Cc2ccccc2)NC(=O)[C@H](Cc2c[nH]cn2)NC(=O)c2cc([N+](=O)[O-])ccc2SC[C@@H](C(N)=O)NC1=O
b. C#Cc1ccc2c(c1)C(=O)N[C@H](C)C(=O)N[C@@H](Cc1c[nH]cn1)C(=O)N[C@H](Cc1ccccc1)C(=O)N[C@@H](CCCNC(=N)N)C(=O)N[C@@H](Cc1c[nH]c3ccccc13)C(=O)N[C@H](C(N)=O)CS2
Between these two entries, a and b , state which has the higher EC50. # reply format: chosen label
a
(a: 5.01 nM, b: 0.447 nM)
